Molecular target: Gal(b1-4)GlcNAc(b1-3)Gal(b1-4)GlcNAc(b1-3)Gal(b1-4)GlcNAc(b1-3)Gal(b1-4)GlcNAc(b1-2)Man(a1-3)[Gal(b1-4)GlcNAc(b1-3)Gal(b1-4)GlcNAc(b1-3)Gal(b1-4)GlcNAc(b1-3)Gal(b1-4)GlcNAc(b1-2)Man(a1-6)]Man(b1-4)GlcNAc(b1-4)[Fuc(a1-6)]GlcNAc
Test: glycan array binding signal (z-score within array); higher = stronger binding
Conditions: glycan notation: IUPAC condensed, linker removed
The sample as a whole holds a higher share of the strongest signals than the screen did.
READOUT: glycan array binding signal (z-score)

Worked cases, glycan array binding signal (z-score) given:
rMpL (Macrolepiota procera) (protein) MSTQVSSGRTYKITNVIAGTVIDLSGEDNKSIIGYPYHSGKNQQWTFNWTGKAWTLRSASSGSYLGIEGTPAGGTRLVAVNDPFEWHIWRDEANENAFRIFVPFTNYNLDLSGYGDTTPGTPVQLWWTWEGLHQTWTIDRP; 3.33
SGC, Q9M345 (protein) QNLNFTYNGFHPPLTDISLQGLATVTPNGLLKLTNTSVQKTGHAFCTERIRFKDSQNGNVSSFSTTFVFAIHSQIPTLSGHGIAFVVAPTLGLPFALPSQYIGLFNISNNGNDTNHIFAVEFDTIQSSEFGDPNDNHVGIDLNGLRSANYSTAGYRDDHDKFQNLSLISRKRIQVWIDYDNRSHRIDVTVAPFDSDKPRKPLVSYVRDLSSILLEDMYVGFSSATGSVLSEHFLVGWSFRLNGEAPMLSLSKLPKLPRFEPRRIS; 5.27

For the next question, use this binder.
Give the value of glycan array binding signal (z-score) reported for the following: cFel (Cyprinus carpio), P68512 (protein) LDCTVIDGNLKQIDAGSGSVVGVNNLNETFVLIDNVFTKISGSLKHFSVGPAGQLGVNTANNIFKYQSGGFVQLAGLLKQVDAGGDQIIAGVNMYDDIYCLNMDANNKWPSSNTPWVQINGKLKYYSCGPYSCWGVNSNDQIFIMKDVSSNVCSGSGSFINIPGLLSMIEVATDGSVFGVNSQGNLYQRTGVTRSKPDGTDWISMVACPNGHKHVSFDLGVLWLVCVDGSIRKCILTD
-0.084

Cited source: the supplement of paper PMC8728848
